test: Viability qHTS for spleen associated tyrosine kinase inhibitor (SYKi) drug resistant MV4-11 cells (AID 1963824); details: SYKi-resistant MV4-11 viability, CellTiter-Glo, 72 h; series mostly up to 45 µM; further: nearly all actives have a fitted effect of over 35% in size
Inconclusive results are not listed. Active and inactive are the calls of the source. The call rests on the fitted dose curve; in most records, active means well fitted cell-killing curve with a large enough effect; inconclusive means small, poorly fitted or top-dose-only effect, or effect the other way; inactive means no such curve, though single readings can be large or run the other way.
Form entry, call: pick from active, inactive

Reference set, count: 5
structure-smiles	label-class
CCCCCCCCCCCCCCCCCCCCCCO	inactive
CNc1nc(Nc2ccc(C(=O)N3CCOCC3)cc2OC)nc2[nH]cc(Cl)c12	active
CCc1cccc2c3c([nH]c12)[C@@](CC)(CC(=O)O)OCC3	active
C[C@@H]1C(=O)OC[C@H]2C(C(=O)O)=C[C@@H]3CC(C)(C)C[C@]312	inactive
Oc1ccc(CNc2ccccc2F)c2cccnc12	active

Could you now consider this next molecule?
Just curious, what result did COc1cc(/C=C/C(=O)O[C@H]2[C@@H]3C=CO[C@@H](O[C@@H]4O[C@H](CO)[C@@H](O)[C@H](O)[C@H]4O)[C@@H]3[C@@]3(CO)O[C@@H]23)ccc1O get here?
inactive
